- target.under.test: T1, recombinant mouse DLL4 (C-terminally His-tagged extracellular domain, R&D Systems) (mouse, UniProt Q9JI71 27-532)
- T1 construct: extracellular domain; also called rmDLL4; mDLL4
- assay.text: ProteOn off-rate screen, periplasmic extract, coated mouse DLL4
log10(koff) overview
Scale: log10; quantity: koff; unit before log: s⁻¹

Some solved entries appear below for comparison.
{"columns": ["binder", "log10(koff)"],
 "data": [
  ["DLLBII129D01 (VHH) VHH: EVQLVESGGGLVQAGGSLRLSCAASGRTFSSYAMAWFRQAPGKEREYVAAIRWSGGTAYYADSVQSRFTITRDNAKNTVYLQMNSLKPEDTAVYYCANRAPDTRLEPYLYDHWGQGTQVTVSS", -3.59],
  ["DLLBII129E07 (VHH) VHH: EVQLVESGGGLVQAGGSLRLSCSASGRTFSSYAMAWYRQAPGKEREYVAAIRWSGGTAYYPDSVQGRFTISRDNAKNTVYLQMNSLKPEDTAVYYCANRAPDTRLAPYEYDHWGQGTQVTVSS", -3.55],
  ["DLLBII129H05 (VHH) VHH: EVQLVESGGGLVQAGGSLRLSCAASGRTFSSYAMAWYRLAPGKEREYVAAIRWSGGTAYYADSVQGRFTISRDNAKNTVYLQMNSLKPEDTAVYYCANRAPDTRLGPYLYDYWGQGTQVTVSS", -3.46],
  ["DLLBII129H04 (VHH) VHH: EVQLVESRGGLVQAGGSLRLSCAASGRTFSSYAMAWFRQAPGKEREYVAAIRWSGGTAYYADSVQGRFTISRDNAKNTVYLQMNSLKPEDTAVYYCANRAPDTRLEPYLYDHWGQGTQVTVSS", -3.60]
]}

Query :: Please report the recorded log10(koff) for DLLBII129B05 (VHH, not shown: small tags and cut ends) VHH: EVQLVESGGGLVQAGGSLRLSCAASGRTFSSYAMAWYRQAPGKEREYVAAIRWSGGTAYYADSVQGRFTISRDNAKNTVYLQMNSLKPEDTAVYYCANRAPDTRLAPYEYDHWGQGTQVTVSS .
Result :: -3.47

Query :: Query: log10(koff); subject: DLLBII129A03 (VHH, not shown: small tags and cut ends) VHH: EVQLVESGGGLVQAGGSLRLSCAASGRTFSSYAMAWFRQAPGKEREYVAAIRWSGGTAYYADSVQGRFTISRDNAKNTVYLQMNSLRPEDTAVYYCANRAPDTRLRPYLYDYWGQGTQVTVSS
Result :: -3.42

Query :: So what does the record say about log10(koff) for DLLBII130E03 (VHH) VHH: EVQLVESGGGLVQAGGSLRLSCAASGRTFSSYAMAWYRQAPGKEREYVAAIRWSGGTAYYADSVQGRFTISRDNAKNTVYLQMNSLKPEDTAVYYCANRAPDTRLEPYEYDHWGQGTQVTVSS ?
Result :: -3.57

Query :: Looking for the measured log10(koff) of DLLBII130B03 (VHH, not shown: small tags and cut ends) VHH: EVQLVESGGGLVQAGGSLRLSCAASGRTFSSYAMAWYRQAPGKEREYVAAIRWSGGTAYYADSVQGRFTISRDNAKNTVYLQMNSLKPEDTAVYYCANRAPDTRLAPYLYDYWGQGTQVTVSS , can you help?
Result :: -3.62
